Data origin, for the record: the supplement of paper PMC10567573

B1: CLCN6 (parent)
chain: TGLVGLFVDFFVRLFTQLKFGVVQ

Variants of: B1
assay-method-text: protein stability index of a GFP-peptide fusion (GPS, HEK-293T) (PSI 1-6); higher = more stable;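 also: lentivirally expressed fusions sorted by FACS into six bins by GFP to DsRed ratio, PSI derived from sequencing read proportions per bin multiplied by bin number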
test-parameters: c terminus: a fixed tail appended
// protein stability index lookup, one value per entry

{"residue-change": "G5Q", "protein stability index": 2.21}
{"residue-change": "V4K", "protein stability index": 2.16}
{"residue-change": "F20D", "protein stability index": 4.13}
{"residue-change": "F7R", "protein stability index": 1.69}
{"residue-change": "F7P", "protein stability index": 2.28}
{"residue-change": "F10T", "protein stability index": 2}
{"residue-change": "G2H", "protein stability index": 2.34}
{"residue-change": "L3E", "protein stability index": 3.71}
{"residue-change": "F10W", "protein stability index": 2.7}
{"residue-change": "V8T", "protein stability index": 1.9}
{"residue-change": "Q24R", "protein stability index": 3.77}
{"residue-change": "V22W", "protein stability index": 2.72}
{"residue-change": "F11S", "protein stability index": 1.77}
{"residue-change": "F20N", "protein stability index": 3.99}
{"residue-change": "V12T", "protein stability index": 2.08}
{"residue-change": "K19W", "protein stability index": 3.05}
{"residue-change": "D9Q", "protein stability index": 2.24}
{"residue-change": "Q24H", "protein stability index": 2.07}
{"residue-change": "V23D", "protein stability index": 2.41}
{"residue-change": "L18Y", "protein stability index": 3.06}
{"residue-change": "T16Q", "protein stability index": 3}
{"residue-change": "R13H", "protein stability index": 2.22}
{"residue-change": "L18R", "protein stability index": 2.74}
{"residue-change": "L14S", "protein stability index": 2.19}
{"residue-change": "Q24S", "protein stability index": 2.94}
{"residue-change": "L3N", "protein stability index": 2.11}
{"residue-change": "T1S", "protein stability index": 2.6}
{"residue-change": "V4D", "protein stability index": 4.33}
{"residue-change": "G5H", "protein stability index": 2.16}
{"residue-change": "V23S", "protein stability index": 2.73}
{"residue-change": "K19L", "protein stability index": 2.56}
{"residue-change": "V22A", "protein stability index": 1.77}
{"residue-change": "G2W", "protein stability index": 2.22}
